Values were extracted from patent US6512112B2.

MIC values recorded for S. Aureus UC ® 9213
measurementLabel: MIC (µg/mL)

INSERT INTO assay_data (compound, recordednumber) VALUES
  ('CC(=O)NC[C@H]1CN(c2ccc([N+]3([O-])CCN(C(=O)CO)CC3)c(F)c2)C(=O)O1', 2),
  ('CC(=O)NC[C@H]1CN(c2ccc([N+]3([O-])CCN(S(=O)(=O)c4ccccc4C#N)CC3)c(F)c2)C(=O)O1', 2),
  ('CC(=O)[NH+]([O-])C[C@@H]1CN(c2ccc(N3CCN(S(=O)(=O)CC#N)CC3)c(F)c2)C(=O)O1 (some centres unmarked)', 4),
  ('CC(=O)NC[C@H]1CN(c2ccc([N+]3([O-])CCOCC3)c(F)c2)C(=O)O1', 4),
  ('CC(=O)NC[C@H]1CN(c2cc(F)c([N+]3([O-])CCN(C(=O)CO)CC3)c(F)c2)C(=O)O1', 2);

----------
Assay: Solubility in pH 7, 50 mM phosphate buffer
Format: physicochemical
Conditions: aqueous buffer, thermodynamic from solid; parent amine of the example's N-oxide; pH 7, 50 mM phosphate buffer or other vehicle, room temperature, 24 to 48 hours; read-out: Parent Amine Solubility
Entries and their solubility
measurementLabel: solubility (mg/mL)

INSERT INTO results (compound, measurementlabel, recordednumber) VALUES
  ('CC(=O)NC[C@H]1CN(c2ccc(N3CCN(S(=O)(=O)c4ccccc4C#N)CC3)c(F)c2)C(=O)O1 [parent amine of Example 6, reference compound]', 'solubility', 0.031),
  ('CC(=O)NC[C@H]1CN(c2ccc(N3CCN(S(C)(=O)=O)CC3)c(F)c2)C(=O)O1 [parent amine of Example 3, reference compound]', 'solubility', 0.28),
  ('CC(=O)NC[C@H]1CN(c2ccc(N3CCN(C(=O)CO)CC3)c(F)c2)C(=O)O1 [parent amine of Example 1, reference compound]', 'solubility', 4.2);

----------
measurementLabel: melting point

INSERT INTO measurements (compound, result) VALUES
  ('CC(=O)[NH+]([O-])C[C@@H]1CN(c2ccc(N3CCN(S(=O)(=O)CC#N)CC3)c(F)c2)C(=O)O1 (some centres unmarked) [Example 5]', '153 to 156 °C'),
  ('CC(=O)NC[C@H]1CN(c2ccc([N+]3([O-])CCN(C(=O)CO)CC3)c(F)c2)C(=O)O1 (hydrate or solvate) [Example 1]', '158 to 160 °C'),
  ('CC(=O)NC[C@H]1CN(c2cc(F)c([N+]3([O-])CCN(C(=O)CO)CC3)c(F)c2)C(=O)O1 [Example 4]', '100 to 105 °C'),
  ('CC(=O)NC[C@H]1CN(c2ccc([N+]3([O-])CCN(S(=O)(=O)c4ccccc4C#N)CC3)c(F)c2)C(=O)O1 [Example 6]', '190 to 192 °C'),
  ('CC(=O)NC[C@H]1CN(c2ccc([N+]3([O-])CCOCC3)c(F)c2)C(=O)O1 [Example 2]', '202 to 204 °C');

----------
Entries and their solubility
Assay: Solubility in pH 7, 50 mM phosphate buffer
Type: physicochemical
Conditions: aqueous buffer, thermodynamic from solid; pH 7, 50 mM phosphate buffer or other vehicle, room temperature, 24 to 48 hours; read-out: N-Oxide Solubility
measurementLabel: solubility (mg/mL)

INSERT INTO measurements (molecule, recordednumber) VALUES
  ('CC(=O)NC[C@H]1CN(c2ccc([N+]3([O-])CCOCC3)c(F)c2)C(=O)O1 [Example 2]', 534),
  ('CC(=O)NC[C@H]1CN(c2ccc([N+]3([O-])CCN(C(=O)CO)CC3)c(F)c2)C(=O)O1 [Example 1]', 348),
  ('CC(=O)NC[C@H]1CN(c2ccc([N+]3([O-])CCN(S(=O)(=O)c4ccccc4C#N)CC3)c(F)c2)C(=O)O1 [Example 6]', 1.1);
